molecular target: RKO/B7H3 세포주에 과발현된 B7-H3 (UniProt Q5ZPR3); assay: cell ELISA on fixed RKO/B7H3 cells (표 3)
observed_property: EC50
Number plus unit, in that order.

Request: State, in one line, measured EC50 of #9 항체 (B7-H3 항체) (antibody, V domains shown) VH: EVQLLESGGGLVQPGGSLRLSCAASGFTFSSYAMNWVRQAPGKGLEWVSTISGSGGQTYYADSVKGRFTISRDNSKNTLYLQMNSLRAEDTAVYYCARWRSIWAFDYWGQGTLVTVSS VL: QSVLTQPPSASGTPGQRVTISCSDNNIGSKSVHWYQQLPGTAPKLLIYDNNKRPSGVPDRFSGSKSGTSASLAISGLRSEDEADYYCGTWDDSLSGPVFGGGTKLTVL
Result: 0.05 nM

Request: State, in one line, measured EC50 of #8 항체 (B7-H3 항체) (antibody, V domains shown) VH: EVQLLESGGGLVQPGSSLRLSCAASGFTFSSYWISWVRQAPGKGLEWVSEISPSGNTNYNPSLKSRFTISRDNSKNTLYLQMNSLRAEDTAVYYCAREVGDLLDYWGQGTLVTVSS VL: QSVLTQPPSASGTPGQRVTISCSGSNIGNNYVSWYQQLPGTAPKLLIYQDSKRPSGVPDRFSGSKSGTSASLAISGLRSEDEADYYCLVWDRSSDHFVFGGGTKLTVL
Result: 0.06 nM

Request: State, in one line, measured EC50 of #6 항체 (B7-H3 항체) (antibody, V domains shown) VH: EVQLLESGGGLVQPGGSLRLSCAASGFTFSTYAISWVRQAPGKGLEWVSSIYYSGYTHYNPSLESRFTISRDNSKNTLYLQMNSLRAEDTAVYYCARGYSGWMDVWGQGTLVTVSS VL: QSVLTQPPSASGTPGQRVTISCGGNNIGSKSVHWYQQLPGTAPKLLIYDNNKRPSGVPNRFSGSKSGTSASLAISGLRSEDEADYYCAAWDDSLNVPVFGGGTKLTVL
Result: 0.065 nM

Request: State, in one line, measured EC50 of #1 항체 (B7-H3 항체) (antibody, V domains shown) VH: EVQLLESGGGLVQPGGSLRLSCAASGFTFSSYAMSWVRQAPGKGLEWVSTITGSGGSTYYADSVKGRFTISRDNSKNTLYLQMNSLRAEDTAVYYCARYKSGAFDIWGQGTLVTVSS VL: EIVLTQSPGTLSLSPGERATLSCRASQGIGNYLGWYQQKPGQAPRLLIYTASSLQSGIPDRFSGSGSGTDFTLTISRLEPEDFAVYYCQQGYSTPSWTFGQGTKVEIK
Result: 0.015 nM

Request: State, in one line, measured EC50 of #2 항체 (B7-H3 항체) (antibody, V domains shown) VH: EVQLLESGGGLVQPGGSLRLSCAASGFTFSAYYMIWVRQAPGKGLEWVSITNPSGGVTSYAQKFQGRFTISRDNSKNTLYLQMNSLRAEDTAVYYCARVGGRGFDIWGQGTLVTVSS VL: EIVLTQSPGTLSLSPGERATLSCHASQGISNYVAWYQQKPGQAPRLLIYDASNRATGIPDRFSGSGSGTDFTLTISHLEPEDFAVYYCQQSYSTLLTFGQGTKVEIK
Result: 0.036 nM

Request: State, in one line, measured EC50 of #7 항체 (B7-H3 항체) (antibody, V domains shown) VH: EVQLLESGGGLVQPGGSLRLSCAASGFTFSNFWIGWVRQAPGKGLEWVSWINPPGSITSYADSVKGRFTISRDNSKDTLYLQMNSLRAEDTAVYYCAREVGDVLDYWGQGTLVTVSS VL: QSVLTQPPSASGTPGQRVTISCTGTSSDIGRYNYVSWYQQLPGTAPKLLIYRNTQRPSGVPDRFSGSKSGTSASLAISGLRSEDEADYYCGTWDSSLNAYVFGGGTKLTVL
Result: 0.187 nM
